Cited source: PubChem BioAssay (NCI)

- Test system: EKVX NSCLC
- measurement-description: NCI-60 one-dose screen, 48 h (100 = growth as untreated, 0 = no growth, -100 = all killed)
- condition-label: 10 µM unless noted
Compounds without any hit were thinned out: in the full panel of roughly 83,000, 20% have a hit.
result-type: growth (%)
I only need the number, in %, no unit after it.

Some solved entries appear below for comparison.
Oc1c(Cl)cc(Cl)c2ccc(Cn3cc(-c4cc(F)cc(F)c4)nn3)nc12	84.7
O=C(CSc1nc2sc3c(c2c(=O)n1-c1ccccc1)CCCCC3)N/N=C/c1ccc(F)cc1	80

# lookup: growth of CCCCCC(=O)OCC(=O)O[C@@H]1C[C@]2(C(C)C)O[C@@]1(C)[C@@H]1CC[C@@H](C)[C@H]1[C@@H]2OC(=O)/C=C/c1ccccc1
73.8

# lookup: growth of COc1ccc2cc(-c3ccc(NC(C)=O)c(=O)o3)ccc2c1
106

# lookup: growth of O=C(Cc1ccccc1)Nc1nc(O)c(/C=C2\C(=O)C=Cc3ccccc32)s1
95.6

# lookup: growth of O=C(CN1C(=O)CCC1=O)Nc1ncc(Cc2ccc(F)cc2)s1
92.6

# lookup: growth of Cc1c(-c2nc3ccc(F)cc3c(=O)[nH]2)c2ccccc2n1C
57.5

# lookup: growth of C=C(C)[C@@H]1CC[C@]2(C(=O)NCC#CCN3CCN(C)CC3)CC[C@]3(C)[C@H](CC[C@@H]4[C@@](C)(CCC#N)[C@H](C(=C)C)CC[C@]43C)[C@@H]12
52.1

# lookup: growth of CC(=O)Cc1nsc(NC(=O)c2cc(-c3cc(Cl)cc(Cl)c3)oc2C)n1
97.3
